Assay readout: melting point

O=C(/C=C/c1ccc(F)c(F)c1)N1CCN(C(=O)c2cc(C(F)(F)F)cc(C(F)(F)F)c2)[C@H](Cc2c[nH]c3ccccc23)C1 : 214 to 217 °C

Give one value of melting point per listed compound.
1. C[Si](C)(C)c1ccc2c(c1)cc(C(=O)Nc1ccc(N3CC(O)C3)nc1)n2Cc1cccc(F)c1
2. CN(C)Cc1ccc(Cc2cnc(N[N+](=O)[O-])[nH]c2=O)cc1
3. COc1ccc(S(=O)(=O)Nc2ccccc2NC(=O)c2ccccc2[N+](=O)[O-])cc1
4. C=CCN(CC=C)S(=O)(=O)c1ncn(C(=O)N(CC)CC)n1
5. CCOC(=O)c1c(N2CCCCC2)c(C#N)c(=O)n2ccccc12

stdout:
1. 207 to 208 °C
2. 214 to 217 °C
3. 168 to 170 °C
4. 49 to 51 °C
5. 143 to 144 °C

The reported numbers originate from a melting point compilation (Tetko et al.; mined from patent text by program, amines drawn as free bases though some values may be those of a salt).
